- system: T1, human ANGPTL3 (human, UniProt Q9Y5C1 17-460)
- T1 construct: Biotinylated in the ELISA assays; also called hANGPTL3; free ANGPTL3
- T1 sequence: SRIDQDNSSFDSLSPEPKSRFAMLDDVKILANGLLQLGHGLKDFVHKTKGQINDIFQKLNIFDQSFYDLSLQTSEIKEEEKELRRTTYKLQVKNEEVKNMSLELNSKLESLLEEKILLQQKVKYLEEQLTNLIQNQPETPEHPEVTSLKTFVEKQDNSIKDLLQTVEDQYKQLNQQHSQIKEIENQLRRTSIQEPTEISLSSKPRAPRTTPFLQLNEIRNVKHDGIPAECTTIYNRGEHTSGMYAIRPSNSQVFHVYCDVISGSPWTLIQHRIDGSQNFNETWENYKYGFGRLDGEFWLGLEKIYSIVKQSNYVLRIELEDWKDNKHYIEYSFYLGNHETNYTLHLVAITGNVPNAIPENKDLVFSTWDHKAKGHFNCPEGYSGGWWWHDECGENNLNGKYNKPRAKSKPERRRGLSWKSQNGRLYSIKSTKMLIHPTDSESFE
- protocol-details: ELISA; Ab captured by anti-human Fc; biotinylated antigen at 0.412 nM
parameter-measured: OD at 560 nm (OD 560 nm)
# number only, unit OD 560 nm dropped from output

Task: Requested read-out: OD at 560 nm. Entry: Ab with LC variant having a D31S mutation (SEQ ID NO:21) and a HC of SEQ ID NO:6 (antibody, human IgG4 S228P, kappa, F234A L235A, V domains shown, also called D31S Variant Ab; D31S Ab) VH: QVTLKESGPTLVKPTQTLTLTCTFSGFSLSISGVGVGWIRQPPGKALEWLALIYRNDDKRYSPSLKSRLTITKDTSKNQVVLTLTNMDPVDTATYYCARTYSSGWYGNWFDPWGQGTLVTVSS VL: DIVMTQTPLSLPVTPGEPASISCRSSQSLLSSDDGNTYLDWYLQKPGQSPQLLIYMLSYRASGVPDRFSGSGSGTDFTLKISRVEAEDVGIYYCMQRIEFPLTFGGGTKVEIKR
Output: 0.058
